Tested on: K-562 leukemia
Test: NCI-60 one-dose screen, 48 h (100 = growth as untreated, 0 = no growth, -100 = all killed)
Conditions: 10 µM unless noted
About 83,000 compounds went through this panel and 20% of them were active in at least one assay; those are over-represented in the sample as a whole. The source made the active and inactive calls. Rule for the calls: active = growth percent below 10; inactive = the rest.
growth listing for selected compounds.

> print(dat)
                                   compound  readout.kind  experimental.result
1  C=C1CCC2C3(C)COC(c4ccc(N(C)C)cc4)OC3CCC2(C)C1C/C=C1/C(=O)OCC1O (stereo not given)        growth       44% (inactive)
2              O=C(O)COc1ccc(-c2cssc2=S)cc1        growth      115% (inactive)
3  O=C(/C=C\c1cccc([N+](=O)[O-])c1)/C=C/c1cccc([N+](=O)[O-])c1        growth     70.5% (inactive)
4  COc1ccc(-c2c(N)n[nH]c2-c2cc(OC)c3c(c2)OCCO3)cc1        growth     12.1% (inactive)

--- query ---
Look up and report measured growth for this entry: `CC(C)(C)n1cc(-c2ccnc(NCCCNS(=O)(=O)c3ccc(Cl)cc3)c2)c(-c2cccc(O)c2)n1`
-23.3% (active)

FYI, the data here is from PubChem BioAssay (NCI).
